- measurement.protocol: Aqueous solubility, pION method
- protocol.conditions: pH 7.4, aqueous buffer
Mark true for reported solubility of 0.5 µg/mL or greater; mark false for anything smaller.

INSERT INTO measurements (compound, answer_label) VALUES
  ('O=C(O)c1cc(-c2ccc([C@@H]3CCN[C@@H]4C[C@@H]43)cc2)c2ccc(-c3ccc(C(F)(F)F)cc3)cc2c1 (racemic) [Compound 111]', 'false'),
  ('O=C(O)c1cc(-c2ccc(C3C4CCC3CNC4)cc2)c2ccc(-c3ccc(C(F)(F)F)cc3)cc2c1 (centres unmarked) [Compound 133]', 'false'),
  ('CN1C[C@H]2CC[C@@H](C1)[C@]2(O)c1ccc(-c2cc(C(=O)O)cc3cc(-c4ccc(C(F)(F)F)cc4)ccc23)cc1 [Compound 132]', 'true'),
  ('CC(=O)N1C[C@H]2C[C@@H]1C[C@@H]2c1ccc(-c2cc(C(=O)O)cc3cc(-c4ccc(C(F)(F)F)cc4)ccc23)cc1 (racemic) [Compound 113]', 'true'),
  ('O=C(O)c1cc(-c2ccc([C@@]34CCNC[C@@H]3C4)cc2)c2ccc(-c3ccc(C(F)(F)F)cc3)cc2c1 (racemic) [Compound 108]', 'false'),
  ('O=C(O)c1cc(-c2ccc([C@H]3C[C@H]4C[C@@H]3CN4)cc2)c2ccc(-c3ccc(C(F)(F)F)cc3)cc2c1 (racemic) [Compound 112]', 'false'),
  ('O=C(O)c1cc(-c2ccc([C@]3(O)[C@@H]4CC[C@H]3CNC4)cc2)c2ccc(-c3ccc(C(F)(F)F)cc3)cc2c1 [Compound 131]', 'true');

---

- measurement.protocol: Aqueous solubility, pION method
- protocol.conditions: pH 4
// reported Solubility (ug/mL) pH 4 for each item listed
endpoint: Solubility (ug/mL) pH 4

INSERT INTO measurements (compound, experimental_result) VALUES
  ('O=C(O)c1cc(-c2ccc([C@H]3C[C@H]4C[C@@H]3CN4)cc2)c2ccc(-c3ccc(C(F)(F)F)cc3)cc2c1', 1.22),
  ('O=C(O)c1cc(-c2ccc(C34CCNCC3C4(F)F)cc2)c2ccc(-c3ccc(C(F)(F)F)cc3)cc2c1 (centres unmarked)', 1.13),
  ('O=C(O)c1cc(-c2ccc(C3C4CCC3CNC4)cc2)c2ccc(-c3ccc(C(F)(F)F)cc3)cc2c1 (centres unmarked)', 0.38),
  ('O=C(O)c1cc(-c2ccc([C@@H]3C[C@H]4CN[C@@H]3C4)cc2)c2ccc(-c3ccc(C(F)(F)F)cc3)cc2c1', 1.45),
  ('CC1CC(c2ccc(-c3cc(C(=O)O)cc4cc(-c5ccc(C(F)(F)F)cc5)ccc34)cc2)CCN1 (centres unmarked)', 0.31),
  ('O=C(O)c1cc(-c2ccc([C@@]3(O)C[C@H]4CC[C@@H]3CN4)cc2)c2ccc(-c3ccc(C(F)(F)F)cc3)cc2c1 [Compound 125b]', 1.55),
  ('O=C(O)c1cc(-c2ccc([C@]3(O)C[C@H]4CC[C@@H]3CN4)cc2)c2ccc(-c3ccc(C(F)(F)F)cc3)cc2c1 [Compound 125a]', 2.66),
  ('CC1CNCCC1c1ccc(-c2cc(C(=O)O)cc3cc(-c4ccc(C(F)(F)F)cc4)ccc23)cc1 (mixture of isomers)', 1.36),
  ('O=C(O)c1cc(-c2ccc([C@@H]3CCN[C@@H]4C[C@@H]43)cc2)c2ccc(-c3ccc(C(F)(F)F)cc3)cc2c1 (racemic)', 0.24),
  ('N[C@@H]1C[C@H](CO)C[C@H]1c1ccc(-c2cc(C(=O)O)cc3cc(-c4ccc(C(F)(F)F)cc4)ccc23)cc1', 3.74),
  ('O=C(O)c1cc(-c2ccc(C34CCN(CC3)CC4)cc2)c2ccc(-c3ccc(C(F)(F)F)cc3)cc2c1', 1.50),
  ('N[C@H]1C[C@@H](C(=O)O)[C@H](c2ccc(-c3cc(C(=O)O)cc4cc(-c5ccc(C(F)(F)F)cc5)ccc34)cc2)C1', 1.05),
  ('O=C(O)c1cc(-c2ccc(C3CC4CCC3CN4)cc2)c2ccc(-c3ccc(C(F)(F)F)cc3)cc2c1 (racemic)', 0.80),
  ('N[C@H]1C[C@@H](CO)[C@H](c2ccc(-c3cc(C(=O)O)cc4cc(-c5ccc(C(F)(F)F)cc5)ccc34)cc2)C1', 4.97);

---

- measurement.target: mP2Y14R (Mus musculus, UniProt Q9ESG6)
- Sequence (Q9ESG6 1-338): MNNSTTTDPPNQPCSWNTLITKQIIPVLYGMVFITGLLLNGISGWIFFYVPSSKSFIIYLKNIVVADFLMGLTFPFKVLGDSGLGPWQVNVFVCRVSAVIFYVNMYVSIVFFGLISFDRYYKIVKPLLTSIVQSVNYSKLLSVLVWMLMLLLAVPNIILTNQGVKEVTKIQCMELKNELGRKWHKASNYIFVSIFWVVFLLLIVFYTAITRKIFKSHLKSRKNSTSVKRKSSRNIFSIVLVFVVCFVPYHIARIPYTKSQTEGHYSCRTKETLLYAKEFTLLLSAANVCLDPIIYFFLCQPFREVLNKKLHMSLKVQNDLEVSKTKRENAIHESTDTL
- measurement.protocol: cell-based
- protocol.conditions: read-out: mP2Y14R, IC50; Table 6; whole mP2Y14R-HEK cells, 200 nM of 3, mean ± SEM, n = 3-6
pIC50: −log10 of the molar value.
// reported pIC50 for each item listed
endpoint: pIC50

INSERT INTO measurements (entry_smiles, experimental_result) VALUES
  ('CC(=O)N1C[C@H]2C[C@@H]1C[C@@H]2c1ccc(-c2cc(C(=O)O)cc3cc(-c4ccc(C(F)(F)F)cc4)ccc23)cc1', 6.99),
  ('N[C@@H]1C[C@H](CO)[C@@H](c2ccc(-c3cc(C(=O)O)cc4cc(-c5ccc(C(F)(F)F)cc5)ccc34)cc2)C1', 7.75),
  ('O=C(O)c1cc(-c2ccc([C@@H]3C[C@@H]4C[C@H]3C(=O)N4)cc2)c2ccc(-c3ccc(C(F)(F)F)cc3)cc2c1', 7.58);

---

- measurement.target: CYP1A2 (Homo sapiens, UniProt P05177)
- Sequence (P05177 whole entry): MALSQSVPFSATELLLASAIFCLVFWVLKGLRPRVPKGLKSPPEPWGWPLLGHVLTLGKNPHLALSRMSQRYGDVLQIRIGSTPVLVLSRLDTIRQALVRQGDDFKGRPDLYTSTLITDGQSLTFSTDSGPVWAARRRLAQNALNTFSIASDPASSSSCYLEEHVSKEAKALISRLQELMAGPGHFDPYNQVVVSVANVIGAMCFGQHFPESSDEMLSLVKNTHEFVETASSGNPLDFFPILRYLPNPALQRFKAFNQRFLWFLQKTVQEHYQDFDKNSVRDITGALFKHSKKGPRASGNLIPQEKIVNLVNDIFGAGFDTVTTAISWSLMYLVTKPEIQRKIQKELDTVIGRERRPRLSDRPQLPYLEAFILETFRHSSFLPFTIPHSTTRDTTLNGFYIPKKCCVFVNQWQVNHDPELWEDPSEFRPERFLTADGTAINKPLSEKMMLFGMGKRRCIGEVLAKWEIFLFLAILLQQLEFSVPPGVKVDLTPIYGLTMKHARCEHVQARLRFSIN
- measurement.protocol: CYP1A2 inhibition
- Type: in vitro ADME
- protocol.conditions: Table 7
pIC50: −log10 of the molar value.
endpoint: pIC50

INSERT INTO assay_data (entry_smiles, experimental_result) VALUES
  ('O=C(O)c1cc(-c2ccc([C@H]3C[C@H]4C[C@@H]3CN4)cc2)c2ccc(-c3ccc(C(F)(F)F)cc3)cc2c1', '< 4.52'),
  ('O=C(O)c1cc(-c2ccc([C@@H]3C[C@@H]4C[C@H]3NC4=O)cc2)c2ccc(-c3ccc(C(F)(F)F)cc3)cc2c1', '< 4.52');

---

- measurement.target: CYP3A4 (Homo sapiens)
- Sequence (P08684 whole entry): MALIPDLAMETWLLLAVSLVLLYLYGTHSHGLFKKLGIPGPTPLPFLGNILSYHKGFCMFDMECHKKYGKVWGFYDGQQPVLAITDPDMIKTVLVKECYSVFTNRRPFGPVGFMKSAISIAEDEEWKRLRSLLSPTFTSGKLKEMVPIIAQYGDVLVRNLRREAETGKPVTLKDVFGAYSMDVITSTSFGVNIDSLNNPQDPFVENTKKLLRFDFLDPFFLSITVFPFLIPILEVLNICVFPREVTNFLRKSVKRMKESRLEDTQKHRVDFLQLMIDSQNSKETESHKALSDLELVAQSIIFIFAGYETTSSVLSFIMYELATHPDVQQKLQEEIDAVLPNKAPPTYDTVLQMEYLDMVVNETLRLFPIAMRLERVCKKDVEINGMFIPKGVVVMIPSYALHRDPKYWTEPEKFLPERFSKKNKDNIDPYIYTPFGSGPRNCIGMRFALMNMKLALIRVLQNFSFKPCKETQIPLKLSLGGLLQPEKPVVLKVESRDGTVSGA
- measurement.protocol: CYP3A4 inhibition
- Type: in vitro ADME
- protocol.conditions: Table 4
pIC50: −log10 of the molar value.
endpoint: pIC50

INSERT INTO assay_data (entry_smiles, endpoint, experimental_result) VALUES
  ('O=C(O)c1cc(-c2ccc(-c3cc(CO)on3)cc2)c2ccc(-c3ccc(C(F)(F)F)cc3)cc2c1', 'pIC50', '< 4.52');

---

- measurement.target: hP2Y14R (Homo sapiens)
- Construct: expressed in transfected cells; host or cells: CHO cells
- Sequence (Q15391 whole entry): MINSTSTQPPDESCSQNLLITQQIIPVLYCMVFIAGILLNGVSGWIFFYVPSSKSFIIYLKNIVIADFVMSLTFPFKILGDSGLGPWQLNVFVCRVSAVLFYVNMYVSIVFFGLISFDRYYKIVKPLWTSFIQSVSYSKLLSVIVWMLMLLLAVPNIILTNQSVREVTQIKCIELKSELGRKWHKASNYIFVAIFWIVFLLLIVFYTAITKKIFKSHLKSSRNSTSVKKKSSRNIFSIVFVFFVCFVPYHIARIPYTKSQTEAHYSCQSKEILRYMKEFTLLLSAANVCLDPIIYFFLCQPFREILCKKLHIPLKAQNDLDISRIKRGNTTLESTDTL
- measurement.protocol: Inhibition of fluorescent antagonist binding in whole hP2Y14R-expressing CHO cells (flow cytometry)
- protocol.conditions: Table 2; whole hP2Y14R-CHO cells, 20 nM fluorescent antagonist 3, mean+SEM, n = 3-6; read-out: IC50
pIC50: −log10 of the molar value.
endpoint: pIC50

INSERT INTO assay_data (compound, measurement_target, endpoint, experimental_result) VALUES
  ('CC1CNCCC1c1ccc(-c2cc(C(=O)O)cc3cc(-c4ccc(C(F)(F)F)cc4)ccc23)cc1 (mixture of isomers) [Compound 106]', 'hP2Y14R (Homo sapiens)', 'pIC50', 7.68),
  ('N[C@@H]1C[C@H](C(=O)O)C[C@H]1c1ccc(-c2cc(C(=O)O)cc3cc(-c4ccc(C(F)(F)F)cc4)ccc23)cc1 [Compound 140]', 'hP2Y14R (Homo sapiens)', 'pIC50', 6.78),
  ('O=C(O)c1cc(-c2ccc([C@H]3C[C@H]4C[C@@H]3NC4=O)cc2)c2ccc(-c3ccc(C(F)(F)F)cc3)cc2c1 [Compound 122]', 'hP2Y14R (Homo sapiens)', 'pIC50', 7.23),
  ('O=C(O)c1cc(-c2ccc([C@H]3C[C@H]4C[C@@H]3C(=O)N4)cc2)c2ccc(-c3ccc(C(F)(F)F)cc3)cc2c1 [Compound 119]', 'hP2Y14R (Homo sapiens)', 'pIC50', 7.00),
  ('N[C@H]1C[C@@H](C(=O)O)[C@H](c2ccc(-c3cc(C(=O)O)cc4cc(-c5ccc(C(F)(F)F)cc5)ccc34)cc2)C1 [Compound 139]', 'hP2Y14R (Homo sapiens)', 'pIC50', 6.99),
  ('CC(=O)N1C[C@H]2C[C@@H]1C[C@@H]2c1ccc(-c2cc(C(=O)O)cc3cc(-c4ccc(C(F)(F)F)cc4)ccc23)cc1 (racemic) [Compound 113]', 'hP2Y14R (Homo sapiens)', 'pIC50', 7.69),
  ('O=C(O)c1cc(-c2ccc([C@@H]3C[C@H]4CN[C@@H]3C4)cc2)c2ccc(-c3ccc(C(F)(F)F)cc3)cc2c1 [Compound 116]', 'hP2Y14R (Homo sapiens)', 'pIC50', 8.01),
  ('O=C(O)c1cc(-c2ccc(C3C4CCC3CNC4)cc2)c2ccc(-c3ccc(C(F)(F)F)cc3)cc2c1 (stereo not shown) [Compound 129]', 'hP2Y14R (Homo sapiens)', 'pIC50', 7.42),
  ('O=C(O)c1cc(-c2ccc(C34CCN(CC3)CC4)cc2)c2ccc(-c3ccc(C(F)(F)F)cc3)cc2c1 [Compound 4]', 'hP2Y14R (Homo sapiens)', 'pIC50', 7.70),
  ('N[C@H]1C[C@@H](CO)[C@H](c2ccc(-c3cc(C(=O)O)cc4cc(-c5ccc(C(F)(F)F)cc5)ccc34)cc2)C1 [Compound 135]', 'hP2Y14R (Homo sapiens)', 'pIC50', 7.90);

// data source = patent US20240150290A1
